Hello, the source for this data is ChEMBL document CHEMBL1127975, in case you need it.

pIC50 by entry:
experimental.system: Type-1 angiotensin II receptor (Homo sapiens, UniProt P30556)
Sequence (P30556 whole entry): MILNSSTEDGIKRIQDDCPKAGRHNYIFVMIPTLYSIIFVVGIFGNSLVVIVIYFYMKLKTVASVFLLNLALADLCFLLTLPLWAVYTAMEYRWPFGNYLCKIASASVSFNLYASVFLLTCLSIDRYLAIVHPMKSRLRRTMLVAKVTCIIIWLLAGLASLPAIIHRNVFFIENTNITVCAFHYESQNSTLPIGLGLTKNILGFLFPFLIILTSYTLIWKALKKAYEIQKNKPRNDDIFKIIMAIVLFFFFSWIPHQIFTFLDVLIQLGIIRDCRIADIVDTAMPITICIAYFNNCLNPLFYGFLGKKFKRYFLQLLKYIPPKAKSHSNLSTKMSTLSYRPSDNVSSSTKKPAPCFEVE
experiment.notes: In vitro binding affinity of compound against Angiotensin II receptor, type 1
In simple prose, pIC50 is minus the logarithm base ten of a concentration in moles per litre.

Before answering, review these 2 worked examples.
{"smi": "CCCc1nc(CN2CCC(c3ccccc3)CC2)c(C(=O)O)n1Cc1ccc(-c2ccccc2-c2nn[nH]n2)cc1", "property.name": "pIC50", "endpoint.result": 8.70}
{"smi": "CCCc1nc(CN2CCN(c3ccccn3)CC2)c(C(=O)O)n1Cc1ccc(-c2ccccc2-c2nn[nH]n2)cc1", "property.name": "pIC50", "endpoint.result": 8.38}

Item CCCc1nc(CN(Cc2ccccc2)C(=O)OC(C)(C)C)c(C(=O)O)n1Cc1ccc(-c2ccccc2-c2nn[nH]n2)cc1 has what recorded pIC50?
8.05
